Riduction % (extravasation) values, listed per item
# Test system: reverse passive Arthus reaction, mouse ear pinna
# measurementProtocol: Reverse passive Arthus reaction (RPA) in the mouse ear pinna: oedema and Evans blue extravasation
# Assay type: in vivo
# conditionSet: reduction of extravasation versus Vehicle (0); mouse ear, 10 mg/Kg i.p.
Report the figure in % without appending any unit label.

The cases that follow already have their Riduction % (extravasation) on record.
CCCCCCCCCCCCCCCCCC(=O)NC1CCCC1 [Example 38, N-cyclopentyl-stearoyl amide]: 43.4
CCCCCCCCCCCCCCCC(=O)NC1CCC1 [Example 27, N-cyclobutyl-palmitoyl amide]: 56.7
CCCCCCCCCCCCCCCCCC(=O)NC1CCC1 [Example 28, N-cyclobutyl-stearoyl amide]: 65.6

Moving on to another molecule below.
Query string: Give me measured Riduction % (extravasation), please, for this molecule: CCCCCCCCCCCCCCCCCC(=O)NCCCCC [Example 34, N- pentyl-stearoyl amide]
Result string: 31.2
